All figures here come from patent US20230174488A1.

target: SARS-CoV-2 M^PRO (Severe acute respiratory syndrome coronavirus 2, UniProt P0DTD1); test: biochemical; format: biochemical; settings: In vitro potency data; 30 min pre-incubation, 25 nM M^pro, 25 µM substrate; read-out: IC50
The recorded IC50 of each item maps onto one of these classes: bin A: < 400 nM; bin B: ≥ 400 nM and < 1000 nM; bin C: ≥ 1000 nM

Asked: Band assignment needed for O=C(NC1CCC(F)(F)CC1)[C@@H](c1cnccn1)N(C(=O)CCl)c1ccc(-c2ccns2)cc1 [INSCoV-601I(l)] please.
Given back: bin A

Asked: Band assignment needed for CC(C)(C)c1ccc(N(C(=O)CCl)C(C(=O)NC2CCCCC2)c2cnccn2)cc1 (stereo not shown) [INSCoV-538] please.
Given back: bin A

Asked: Band assignment needed for O=C(NC1CCC(F)(F)CC1)C(c1cnccn1)N(C(=O)CCl)c1ccc(-c2cncs2)cc1 (single isomer, unassigned) [INSCoV-601G(2)] please.
Given back: bin A

Asked: Band assignment needed for O=C(N[C@@H]1CCOC1)C(c1cncnc1)N(C(=O)CCl)c1ccc(-c2cnco2)cc1 (stereo partly shown) [INSCoV-600C(2)] please.
Given back: bin A

Asked: Band assignment needed for CC(C)(C)c1ccc(N(C(=O)CCl)C(C(=O)NC2CCCCC2)c2cncc(C#N)c2)cc1 (stereo not shown) [INSCoV-539] please.
Given back: bin B

Asked: Band assignment needed for CC(C)(C)c1ccc(N(C(=O)CCl)C(C(=O)NC2CCCCC2)c2cccnc2)cc1 (stereo not shown) [INSCoV-110A] please.
Given back: bin C

Asked: Band assignment needed for O=C(NC1CCC(F)(F)CC1)[C@H](c1cncnc1)N(C(=O)[C@H]1CO1)c1ccc(-c2cnco2)cc1 [INSCoV-600R(1A)] please.
Given back: bin C

Asked: Band assignment needed for CCS(=O)(=O)N1CCC(NC(=O)C(c2cnccn2)N(C(=O)CCl)c2ccc(-c3cnco3)cc2)CC1 (stereo not shown) [INSCoV-501R(1)] please.
Given back: bin B

Asked: Band assignment needed for O=C(NCCc1ccccc1)C(c1cncnc1)N(C(=O)CCl)c1ccc(-c2cnco2)cc1 (stereo not shown) [INSCoV-501E] please.
Given back: bin B

Asked: Band assignment needed for O=C(N[C@H]1CCOC1)C(c1cncnc1)N(C(=O)CCl)c1ccc(-c2cnco2)cc1 (stereo partly shown) [INSCoV-600C(1)] please.
Given back: bin A

Asked: Band assignment needed for O=C(NC1CCN(S(=O)(=O)C2CC2)CC1)C(c1cncnc1)N(C(=O)CCl)c1ccc(-c2cnco2)cc1 (stereo not shown) [INSCoV-501H] please.
Given back: bin B

Asked: Band assignment needed for O=C(NC1CCC(F)(F)CC1)C(c1cnccn1)N(C(=O)CCl)c1ccc(-c2ccns2)cc1 (single isomer, unassigned) [INSCoV-601I(2)] please.
Given back: bin A

Asked: Band assignment needed for O=C(NC1CCC(F)(F)CC1)C(c1cnccn1)N(C(=O)CCl)c1ccc(-c2cnco2)cc1 (stereo not shown) [INSCoV-501S] please.
Given back: bin A

Asked: Band assignment needed for O=C(NC1CCC(F)(F)CC1)C(c1cncnc1)N(C(=O)[C@H]1CO1)c1ccc(-c2cnco2)cc1 (stereo partly shown) [INSCoV-600R(1)] please.
Given back: bin C

Asked: Band assignment needed for CC(=O)c1ccc(NC(=O)[C@@H](c2cnccn2)N(C(=O)CCl)c2ccc(-c3ccns3)cc2)[nH]1 [INSCoV-601M] please.
Given back: bin C

Asked: Band assignment needed for O=C(NC1CCC(F)(F)CC1)C(c1cncnc1)N(C(=O)C1CO1)c1ccc(-c2cnco2)cc1 (stereo not shown) [INSCoV-600R] please.
Given back: bin C

Asked: Band assignment needed for O=C(NC1CCC(F)(F)CC1)[C@@H](c1cncnc1)N(C(=O)[C@H](F)Cl)c1ccc(-c2ccno2)cc1 (single isomer, unassigned) [INSCoV-614A(1A)] please.
Given back: bin C

Asked: Band assignment needed for O=C(NC1CCC(F)(F)CC1)C(c1cncnc1)N(C(=O)[C@@H]1CO1)c1ccc(-c2cnco2)cc1 (single isomer, unassigned) [INSCoV-600R(2A)] please.
Given back: bin C

Asked: Band assignment needed for CC(C)c1cc(F)c(NC(=O)[C@@H](c2cncnc2)N(C(=O)CCl)c2ccc(-c3ccns3)cc2)c(F)c1 [INSCoV-601O] please.
Given back: bin C

Asked: Band assignment needed for O=C(NC1CCOCC1)C(c1cccnc1)N(C(=O)CCl)c1ccc(-c2cnco2)cc1 (stereo not shown) [INSCoV-600A(1)] please.
Given back: bin B

Asked: Band assignment needed for CC(C)(C)c1ccc(N(C(=O)CCl)C(C(=O)NC2CCCCC2)c2cncnc2)cc1 (stereo not shown) [INSCoV-536] please.
Given back: bin B

Asked: Band assignment needed for O=C(NC1CCCCC1)C(c1cccnc1)N(Cc1ccccc1C(F)(F)F)C(=O)CCl (stereo not shown) [INSCoV-574A] please.
Given back: bin C

Asked: Band assignment needed for N#Cc1cc(OC(F)(F)F)ccc1N(C(=O)C(F)Cl)C(C(=O)NC1CCC(F)(F)CC1)c1cncnc1 (single isomer, unassigned) [INSCoV-517C(1)] please.
Given back: bin C

Asked: Band assignment needed for N#Cc1cc(OC(F)(F)F)ccc1N(C(=O)[C@H](F)Cl)[C@@H](C(=O)NC1CCC(F)(F)CC1)c1cncnc1 (single isomer, unassigned) [INSCoV-517C(2)] please.
Given back: bin C

Asked: Band assignment needed for CC(C)(C)NC(=O)C(c1cccnc1)N(C(=O)CCl)c1ccc(C(C)(C)C)cc1 (stereo not shown) [INSCoV-534] please.
Given back: bin C

Asked: Band assignment needed for O=C(N[C@H]1CCC(F)(F)C1)C(c1cncnc1)N(C(=O)CCl)c1ccc(-c2cnco2)cc1 (stereo partly shown) [INSCoV-600B(2)] please.
Given back: bin A
